Hello, the source for this data is ChEMBL document CHEMBL1201862, in case you need it.

# System: DU-145
# assay_comment: NCI tumour cell line growth inhibition, 48 h
Calls of active or inactive are those of the source. Cut-off read from the data, not from the text of the source: active = GI50 up to about 1.1 µM and inactive = higher.
Labels: YES (active), NO (inactive)

{"columns": ["molecule", "label_value"],
 "data": [
  ["Cc1cccc2c(=O)c3cccc([C@H](C)C(=O)O)c3oc12", "NO"],
  ["COc1ccc(/C=C/c2sc3ccccc3[n+]2CCCCI)cc1OC", "NO"],
  ["Cc1sc(/N=C/c2c[nH]c3ccccc23)c(C#N)c1C", "NO"],
  ["O=C(N/N=C(\\c1ccccc1)c1ccccn1)NC1CCCCC1", "NO"],
  ["CCOC(=O)c1nnc2c(C#N)c(-c3ccccc3)c(C)n2c1N", "NO"],
  ["CCOC1OC(CO[Si](C)(C)C(C)(C)C)C(O)CC1n1ccc(=O)[nH]c1=O (stereo unspecified)", "NO"],
  ["C1=C(c2ccccc2)SC=C(c2ccccc2)S1", "NO"],
  ["O=C(O)CC(NC(=O)CP(=O)(O)O)C(=O)O (stereo unspecified)", "NO"],
  ["Cc1ccc(S(=O)(=O)OC2=C/C(=N\\c3onc(C)c3C)c3ccccc3C2=O)cc1", "NO"],
  ["CCCCC1Cc2cc(OC)ccc2-c2nc3cc(OC)ccc3n21.CCCCC1Cc2cc(OC)ccc2-c2nc3ccc(OC)cc3n21 (stereo unspecified)", "NO"],
  ["N#Cc1ncn(-c2ccccc2)c1N", "NO"],
  ["CO[C@H]1C=C[C@]23c4cc5c(cc4CN(CC2O)[C@@H]3C1)OCO5 (stereo partly specified)", "YES"],
  ["Cc1ccc(-c2cn3c(nc4ccccc43)c(C)n2)cc1", "NO"],
  ["Nc1c(S(=O)(=O)O)cc(S(=O)(=O)O)c2ccc(/N=N/c3ccccc3)c(O)c12", "NO"],
  ["CC(C)=CCC[C@@H](C)C1=C(O)C(=O)C(C)=C(Nc2ccccc2Br)C1=O", "NO"],
  ["COC1=CC(c2ccc(Br)[nH]2)=N/C1=C/NCC(C)C", "YES"],
  ["CC(C)(C)[Si](C)(C)OCC1C=CC(n2cnc3c(N)ncnc32)O1 (stereo unspecified)", "NO"],
  ["CC(C)(C)n1c(=O)n2n(c1=O)Cc1cccc3cccc(c13)C2", "NO"],
  ["COc1ccc(/C=C2\\N=C(c3ccccc3)N(C3Nc4cc5c(cc4S3)NC(N3C(=O)/C(=C/c4ccc(OC)cc4)N=C3c3ccccc3)S5)C2=O)cc1 (stereo unspecified)", "NO"],
  ["COc1cc2c(cc1OC)[C@@H]1[C@H](C#N)C(=O)C(C)(C)N1CC2", "NO"],
  ["O=C1c2cc(Br)ccc2-c2ccc3c4ccc5c6c(ccc(c7ccc1c2c73)c64)C(=O)c1cc(Br)ccc1-5", "NO"]
]}

---

# System: BT-549
# assay_comment: NCI tumour cell line growth inhibition, 48 h
Activity calls are given as the source filed them. Cut-off read from the data, not from the text of the source: active = GI50 up to about 1.1 µM and inactive = higher.

{"columns": ["compound", "GI50"],
 "data": [
  ["CC(CN(C)C)C(=O)c1ccccc1C(=O)O (stereo not drawn)", "9.59 µM (inactive)"],
  ["CC1(CC(=O)O)OC2CCCCCC2O1.NCc1ccccc1 (stereo not drawn)", "> 100 µM (inactive)"],
  ["C1=C(c2ccccc2)SC=C(c2ccccc2)S1", "17.9 µM (inactive)"],
  ["Cn1c(-c2ccccc2)cc(-c2ccsc2)c1-c1ccsc1", "> 100 µM (inactive)"],
  ["CC(C)(C)c1cc(OCc2nnc3sc(-c4ccc(Cl)cc4)nn23)c(Cl)cc1OCc1nnc2sc(-c3ccc(Cl)cc3)nn12", "4.7 µM (inactive)"],
  ["CN(C)CCNC(=O)c1cccc2nc3cccc(F)c3nc12", "2.23 µM (inactive)"],
  ["O=C(O)CCSC(CC1(c2ccc(Cl)cc2)NC(=O)CCS1)c1ccccc1 (stereo not drawn)", "17 µM (inactive)"],
  ["CCOC(=O)CCCc1cc(O)c2c(C)c3[nH]c4ccc(Cl)cc4c3c(C)c2n1", "19 µM (inactive)"],
  ["CCOC1OC(CO[Si](C)(C)C(C)(C)C)C(O)CC1n1ccc(=O)[nH]c1=O (stereo not drawn)", "> 100 µM (inactive)"],
  ["CO[C@H]1C=C[C@]23c4cc5c(cc4CN(CC2O)[C@@H]3C1)OCO5 (stereo partly drawn)", "2.36 µM (inactive)"],
  ["COc1cc2c(cc1OC)C1Cc3cc(OC)c(OC)cc3C(C2)O1", "> 100 µM (inactive)"],
  ["Nc1ccc(C(=O)O)cc1.Nc1nc(N)c2nc[nH]c2n1", "78 µM (inactive)"],
  ["CC(C)(C)OC(=O)C1/C(=C/CBr)CN1C(=O)OC(C)(C)C (stereo not drawn)", "16.7 µM (inactive)"],
  ["N/C(=N\\NC(=O)c1nc2ccccc2s1)c1ccccn1", "31.3 µM (inactive)"],
  ["CN1C2CCC1CN(CCOC(c1ccc(F)cc1)c1ccc(F)cc1)C2", "43.4 µM (inactive)"],
  ["c1ccc(COCC23CCN(Cc4ccccc4)C(CC(OCc4ccccc4)C2)S3)cc1 (stereo not drawn)", "42.6 µM (inactive)"],
  ["O=C(NC1CCN(Cc2ccccc2)CC1)c1ccc(I)cc1", "87.5 µM (inactive)"],
  ["O=C1c2ccccc2C2(c3ccc(F)cc3)NCCN12 (stereo not drawn)", "> 100 µM (inactive)"],
  ["c1ccc2c(c1)cc1ccc3cccc4ccc2c1c34", "> 100 µM (inactive)"],
  ["C[C@]12CC[C@H]3[C@@H](CC=C4C[C@@H](O)CC[C@@]43C)[C@@H]1C/C(=C\\c1ccc([N+](=O)[O-])cc1)[C@@H]2O", "14.6 µM (inactive)"],
  ["CC1CCCC2=C1C(c1ccc(Cl)cc1)n1c(s/c(=C\\c3ccc(Cl)cc3)c1=O)=N2 (stereo not drawn)", "22.1 µM (inactive)"],
  ["Cc1ccc2c3c1O[C@H]1c4[nH]c5ccccc5c4C[C@@]4(O)[C@@H](C2)N(C)CC[C@]314", "16.4 µM (inactive)"],
  ["COc1ccc(Nc2nc(NNC(=O)Cc3ccccc3)nc(NNC(=O)c3ccncc3)n2)cc1", "> 10 µM (inactive)"],
  ["CC(C)[Si]1(C(C)C)OCC2OC(n3ccc(=O)[nH]c3=O)C([Se]c3ccccc3)C2O[Si](C(C)C)(C(C)C)O1 (stereo not drawn)", "11.6 µM (inactive)"],
  ["COc1ccc2c(O)c(Oc3ccc(Cl)cc3)c(=O)oc2c1", "36.9 µM (inactive)"],
  ["CCCCn1c(C)c(C(=O)OCC)c2cc(OCc3ccc(C(=O)Nn4c(C)ccc4C)cc3)c(Br)cc21", "> 100 µM (inactive)"],
  ["CC(=O)OC1C2CCC3C(C)(O)C4CC(O)C(C)(C)C4(O)C(O)CC13CC2(C)O (stereo not drawn)", "> 100 µM (inactive)"],
  ["N#Cc1nc(-c2cccs2)oc1N", "> 100 µM (inactive)"],
  ["O=C(Nc1nnc(-c2ccc(Cl)cc2)o1)C(SC(=S)N1CCOCC1)c1ccccc1 (stereo not drawn)", "16.8 µM (inactive)"],
  ["COc1cc2cc(C(=O)N3CC(CCl)c4ccc([N+](=O)[O-])cc43)[nH]c2c(OC)c1OC (stereo not drawn)", "> 100 µM (inactive)"],
  ["CCN(CC)Cc1ccc(Nc2c3ccccc3nc3ccccc23)cc1", "10.1 µM (inactive)"],
  ["NCCN1C(=O)c2cc(Cl)c(Cl)cc2C1(O)c1ccc(Cl)cc1 (stereo not drawn)", "3.62 µM (inactive)"],
  ["CC1(C)CC(=O)C(CCC(=O)/C=C/c2ccccc2)C(=O)C1", "> 100 µM (inactive)"],
  ["Cc1ccc(/C=N/Nc2cnccn2)s1", "> 100 µM (inactive)"],
  ["COc1cc2c(cc1OC)[C@@H]1[C@H](C#N)C(=O)C(C)(C)N1CC2", "> 100 µM (inactive)"],
  ["Cc1nc2c(=S)[nH]ncc2[nH]1", "> 100 µM (inactive)"],
  ["O=C(N/N=C(\\c1ccccc1)c1ccccn1)NC1CCCCC1", "42.4 µM (inactive)"],
  ["COC(=O)C12CCC(C(=O)OC)(Cc3c(c4ccccc4n3S(=O)(=O)c3ccccc3)C1)C2=O (stereo not drawn)", "> 100 µM (inactive)"],
  ["O=C(O)c1cncc(C(=O)O)c1", "> 100 µM (inactive)"],
  ["O=C(O)[C@@]1(Cc2ccc(O)cc2)C[C@@H]2Cc3ccccc3N2N1", "> 100 µM (inactive)"],
  ["Nc1nc(Cl)cc(NCC2(CO)CCCC2)n1", "> 100 µM (inactive)"],
  ["Cn1cc(-c2n[nH]c(-c3ccc(Cl)cc3)nc2=O)c2ccccc21", "5.57 µM (inactive)"],
  ["CCCC#CC(O)(C(=O)OC1CCN(C)CC1)C1CCCCC1 (stereo not drawn)", "88.7 µM (inactive)"]
]}
